- TEST SYSTEM: b-Raf (Homo sapiens)
- Construct: Full-length wild type b-Raf is expressed in recombinant form and purified from bacterial or insect cells
- ASSAY OVERVIEW: Raf biochemical assay (in vitro kinase assay, 32-P transfer from ATP to Mek1)
- CONDITION DESCRIPTION: full-length wild type b-Raf, Mek1 substrate, 25 μM ATP
REPORTED PROPERTY: Ki (nM)

COMPOUND STRUCTURE STRING	VALUE REPORTED
C[C@H](O)CNc1nccc(-c2cn(C)nc2-c2cnc3[nH]ccc3c2)n1	22.7
Cc1[nH]c2ncc(-c3nn(C(C)C)cc3-c3ccnc(NC[C@H](C)O)n3)cc2c1Cl	0.6

[1] CNc1ccc(-c2nn(C(C)C)cc2-c2ccnc(NC[C@H](C)O)n2)cn1
[2] C[C@H](O)CNc1nccc(-c2cn(CC#N)nc2-c2cnc3[nH]ccc3c2)n1
*Q* // compare: 1 vs 2 , metric Ki, want the smaller Pick one; state its label.
*A* 2
(2: 3.9 nM, 1: 12 nM)

---

- TEST SYSTEM: b-Raf (Homo sapiens, UniProt P15056, V600E)
- Construct: endogenous in cells; host or cells: A2058 human melanoma cells
- Sequence (P15056 whole entry V600E): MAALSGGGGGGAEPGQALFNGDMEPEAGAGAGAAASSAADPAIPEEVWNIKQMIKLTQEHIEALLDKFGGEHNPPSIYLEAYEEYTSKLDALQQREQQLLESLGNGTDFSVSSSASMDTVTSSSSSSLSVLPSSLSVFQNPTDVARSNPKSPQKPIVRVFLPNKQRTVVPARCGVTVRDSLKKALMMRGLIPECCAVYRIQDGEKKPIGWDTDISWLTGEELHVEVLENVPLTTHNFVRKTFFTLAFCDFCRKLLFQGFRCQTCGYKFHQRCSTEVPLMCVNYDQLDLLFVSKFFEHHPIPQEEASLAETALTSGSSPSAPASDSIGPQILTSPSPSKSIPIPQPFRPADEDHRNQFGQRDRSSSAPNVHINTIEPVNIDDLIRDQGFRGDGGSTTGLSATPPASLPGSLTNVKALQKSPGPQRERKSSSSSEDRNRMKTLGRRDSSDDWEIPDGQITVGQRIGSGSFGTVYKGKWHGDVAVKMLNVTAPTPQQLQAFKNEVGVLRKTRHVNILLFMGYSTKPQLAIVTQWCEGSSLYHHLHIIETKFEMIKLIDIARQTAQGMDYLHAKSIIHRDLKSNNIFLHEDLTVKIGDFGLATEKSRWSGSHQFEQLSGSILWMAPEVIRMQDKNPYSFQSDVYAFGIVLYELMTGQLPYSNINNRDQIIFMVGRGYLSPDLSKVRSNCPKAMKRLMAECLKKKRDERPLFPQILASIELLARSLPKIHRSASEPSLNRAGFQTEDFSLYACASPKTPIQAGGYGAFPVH
- ASSAY OVERVIEW: Raf cellular assay (phospho-Mek1/2 ELISA in A2058 cells)
- Format: cell-based
- CONDITION DESCRIPTION: Table 2; human melanoma A2058 cells (b-Raf mutation), Mek1/2 Ser217/221 phosphorylation, 1 hour incubation; read-out: pMEK IC50
REPORTED PROPERTY: IC50 (nM)

Examples from the recorded data:
MOLECULE	TEST SYSTEM	UNIT ABBREVIATION	IC50
C[C@H](O)CNc1nccc(-c2cn(CC(F)F)nc2-c2cnc3[nH]ccc3c2)n1 [Example B-14]	b-Raf (Homo sapiens, UniProt P15056, V600E)	nM	510
Cc1cc2cc(-c3nn(C(C)C)cc3-c3ccnc(NC[C@H](C)O)n3)cnc2[nH]1 [Example B-7]	b-Raf (Homo sapiens, UniProt P15056, V600E)	nM	4010
Cc1[nH]c2ncc(-c3nn(C(C)C)cc3-c3ccnc(NC[C@H](C)O)n3)cc2c1C [Example B-6]	b-Raf (Homo sapiens, UniProt P15056, V600E)	nM	44
C[C@H](O)CNc1nccc(-c2cn(CC3(C)COC3)nc2-c2cnc3[nH]ccc3c2)n1 [Example B-15]	b-Raf (Homo sapiens, UniProt P15056, V600E)	nM	3250
CC(C)n1cc(-c2ccnc(NCc3ccccn3)n2)c(-c2cnc3[nH]ccc3c2)n1 [Example D-3]	b-Raf (Homo sapiens, UniProt P15056, V600E)	nM	1810

[a] Cc1[nH]c2ncc(-c3nn(C(C)C)cc3-c3ccnc(NC[C@H](C)O)n3)cc2c1Cl [Example E-3]
[b] Cc1cn2cc(-c3nn(C(C)C)cc3-c3ccnc(NC[C@H](C)O)n3)cnc2n1 [Example B-8]
*Q* When a and b are compared, which has the higher number for IC50? Pick one; state its label.
*A* b

---

- TEST SYSTEM: b-Raf (Homo sapiens)
- Construct: Full-length wild type b-Raf is expressed in recombinant form and purified from bacterial or insect cells
- ASSAY OVERVIEW: Raf biochemical assay (in vitro kinase assay, 32-P transfer from ATP to Mek1)
- CONDITION DESCRIPTION: full-length wild type b-Raf, Mek1 substrate, 25 μM ATP
pKi: −log10 of the molar value.
REPORTED PROPERTY: pKi

COMPOUND	pKi
C[C@H](O)CNc1nccc(-c2cn(C)nc2-c2cnc3[nH]cc(Cl)c3c2)n1 [Example E-1]	8.82

[a] CC(C)n1cc(-c2ccnc(NCCF)n2)c(-c2cnc3[nH]ccc3c2)n1 [Example D-5]
[b] CCn1cc(CNc2nccc(-c3cn(C(C)C)nc3-c3cnc4[nH]ccc4c3)n2)cn1 [Example D-10]
*Q* When a and b are compared, which has the higher number for pKi? Pick one; state its label.
*A* a

---

- TEST SYSTEM: b-Raf (Homo sapiens)
- Construct: Full-length wild type b-Raf is expressed in recombinant form and purified from bacterial or insect cells; made in house; host or cells: bacterial or insect cells
- ASSAY OVERVIEW: Raf biochemical assay (in vitro kinase assay, 32-P transfer from ATP to Mek1)
- CONDITION DESCRIPTION: @ 1 μM compound; full-length wild type b-Raf, Mek1 substrate; read-out: b-Raf % inhib @ 1 μM
REPORTED PROPERTY: inhibition at 1 µM (%)

MOLECULE	VALUE REPORTED
CC(C)n1cc(-c2ccnc(NCc3ccccn3)n2)c(-c2cnc3[nH]ccc3c2)n1 [Example D-3]	93
C[C@H](O)CNc1nccc(-c2cn(CC(F)F)nc2-c2cnc3[nH]cc(Cl)c3c2)n1 [Example E-2]	100
COCCNc1nccc(-c2cn(C(C)C)nc2-c2cnc3[nH]ccc3c2)n1 [Example D-13]	100
CC(C)n1cc(-c2ccnc(NC[C@H](C)O)n2)c(-c2cnc3[nH]ccc3c2)n1 [Example B-1]	102
CC(C)n1cc(-c2ccnc(NCCn3cccn3)n2)c(-c2cnc3[nH]ccc3c2)n1 [Example D-4]	100
CC(C)n1cc(-c2ccnc(NCCF)n2)c(-c2cnc3[nH]ccc3c2)n1 [Example D-5]	100
CCn1cc(CNc2nccc(-c3cn(C(C)C)nc3-c3cnc4[nH]ccc4c3)n2)cn1 [Example D-10]	100
CC(C)n1cc(-c2ccnc(NCCc3cn[nH]c3)n2)c(-c2cnc3[nH]ccc3c2)n1 [Example D-7]	99

---

- TEST SYSTEM: b-Raf (Homo sapiens, UniProt P15056, V600E)
- Construct: endogenous in cells; host or cells: A2058 human melanoma cells
- ASSAY OVERVIEW: Raf cellular assay (phospho-Mek1/2 ELISA in A2058 cells)
- Format: cell-based
- CONDITION DESCRIPTION: Table 3; human melanoma A2058 cells (b-Raf mutation), Mek1/2 Ser217/221 phosphorylation, 1 hour incubation; read-out: pMEK IC50
pIC50: −log10 of the molar value.
REPORTED PROPERTY: pIC50

Examples from the recorded data:
COMPOUND STRUCTURE STRING	VALUE REPORTED
CC(C)n1cc(-c2ccnc3[nH]ccc23)c(-c2cnc3[nH]ccc3c2)n1	6.37
Clc1c[nH]c2ncc(-c3nn(C4CCNCC4)cc3-c3ccncn3)cc12	7.21
C[C@H](O)CNc1nccc(-c2cn(C3COC3)nc2-c2cnc3[nH]cc(Cl)c3c2)n1	6.63
C[C@H](CO)n1cc(-c2ccnc(N)n2)c(-c2cnc3[nH]cc(Cl)c3c2)n1	7.20

[a] CC(C)(CO)n1cc(-c2ccnc(NCCC#N)n2)c(-c2cnc3[nH]ccc3c2)n1
[b] COc1ccc(Nc2nccc(-c3cn(CC(F)F)nc3-c3cnc4[nH]ccc4c3)n2)cn1
[c] COc1nc(-c2nn(C(C)(C)C)cc2-c2ccnc(NCCC#N)n2)cnc1N
[d] COc1cc(-c2nn(C3CCOCC3)cc2-c2ccnc(NCCC#N)n2)cnc1N
*Q* Would you mind ranking these molecules by ascending pIC50? Put the labels in the requested order and list them out.
*A* b, a, d, c
(b: 7.15, a: 8.22, d: 8.53, c: 9.70)

---

- TEST SYSTEM: b-Raf (Homo sapiens, UniProt P15056, V600E)
- Construct: endogenous in cells; host or cells: A2058 human melanoma cells
- ASSAY OVERVIEW: Raf cellular assay (phospho-Mek1/2 ELISA in A2058 cells)
- Assay type: cell-based
- CONDITION DESCRIPTION: Table 3; human melanoma A2058 cells (b-Raf mutation), Mek1/2 Ser217/221 phosphorylation, 1 hour incubation; read-out: pMEK IC50
- Procedure: Compounds of the present invention were evaluated for potency against b-Raf using a cellular assay as follows. The activity of Raf kinases in cells is determined by measuring the level of phosphorylation of Mek1/2 at serine 217/221, the site phosphorylated by Raf kinases in vivo. Mek1/2 Ser phosphorylation is measured using anti-phospho-Mek1/2 antibodies (Cell Signaling #9121) in an ELISA format. Healthy growing human melanoma A2058 cells (harboring a b-Raf mutation) are used for the assay. […]
pIC50: −log10 of the molar value.
REPORTED PROPERTY: pIC50

Examples from the recorded data:
COMPOUND STRUCTURE STRING	pIC50
Cc1c[nH]c2ncc(-c3nn(C(C)(C)CO)cc3-c3ccnc(NCCC#N)n3)cc12	9.37
COc1cc(-c2nn(C(C)C)cc2-c2ccnc(NC3CC3)n2)cnc1N	7.62
COCCCn1cc(-c2ccnc(NC[C@H](C)O)n2)c(-c2cnc3[nH]cc(Cl)c3c2)n1	6.84
O=S(=O)(C1CC1)N1CCC(Nc2nccc(-c3cn(CC(F)F)nc3-c3cnc4[nH]ccc4c3)n2)CC1	6.74
COc1cc(-c2n[nH]cc2-c2ccnc(N)n2)cnc1N	5.88

[1] Cc1n[nH]c2ncc(-c3nn(C(C)(C)C)cc3-c3ccnc(NCCC#N)n3)cc12
[2] C[C@H](O)CNc1nccc(-c2cn(CC(F)F)nc2-c2cnc3[nH]cc(C#N)c3c2)n1
*Q* // compare: 1 vs 2 , metric pIC50, want the smaller Pick one; state its label.
*A* 2

[1] C[C@H](O)CNc1nccc(-c2cn(CC3(C)COC3)nc2-c2cnc3[nH]cc(Cl)c3c2)n1
[2] C[C@H](O)CNc1nccc(-c2cn(CC(F)F)nc2-c2cnc3[nH]cc(Cl)c3c2)n1
[3] Cc1cc(-c2nn(CC(F)F)cc2-c2ccnc(NCCC#N)n2)cnc1N
[4] CN1CCC(n2cc(-c3ccnc(NCC(F)F)n3)c(-c3cnc4[nH]cc(Cl)c4c3)n2)CC1
[5] N#CCCNc1nccc(-c2cn(CC(F)F)nc2-c2cnc3c(c2)CCN3)n1
*Q* Would you mind ranking these compounds by ascending pIC50? Put the labels in the requested order and list them out.
*A* 1, 3, 2, 5, 4

[I] Cn1ccc2ncc(-c3nn(C(C)(C)CO)cc3-c3ccnc(NCCC#N)n3)cc21
[II] CC(=O)c1cc(-c2nn(CC(F)F)cc2-c2ccnc(NCCC#N)n2)cnc1N
[III] Cc1c[nH]c2ncc(-c3nn(CC(F)F)cc3-c3ccnc(NCCC#N)n3)cc12
[IV] Cc1c[nH]c2ncc(-c3nn(CC(F)F)cc3-c3ccnc(NC[C@H](C)O)n3)cc12
[V] CC(C)(CO)n1cc(-c2ccnc(NCCC#N)n2)c(-c2cnc3c(c2)CCN3)n1
*Q* Would you mind ranking these compounds by ascending pIC50? Put the labels in the requested order and list them out.
*A* I, V, II, IV, III

[I] CC(C)(CO)n1cc(-c2ccnc(N)n2)c(-c2cnc3[nH]cc(Cl)c3c2)n1
[II] CC(C)n1cc(-c2ccnc(NC[C@H](C)O)n2)c(-c2cnc(N)c(OC(F)F)c2)n1
*Q* When I and II are compared, which has the higher number for pIC50? Pick one; state its label.
*A* I
(I: 8.05, II: 7.06)
